Test system: 3T3
Test: SRB assay, normal 3T3 cells
Assay type: cell-based
Settings: NIH3T3, 120 h; Normal mouse; 5% FCS, 5 Day Incubation
Description: The cells were passaged using Trypsin (Gibco).

# compound, IC50
measured = [
    ("O/N=C1\\CC(c2ccc(Cl)cc2)(c2ccc(Cl)cc2)c2ccc(Cl)cc21 [Compound 11]", "> 10 µM"),
]

====

System: MCF7
Assay: SRB antiproliferative assay, MCF7
Conditions: Homo sapiens, MCF7, 120 h, read-out: SRB IC50 MCF7

# smilesRecord, IC50
records = [
    ("O/N=C1\\CC(c2ccc(Cl)cc2)(c2ccc(Cl)cc2)c2ccc(Cl)cc21", "4.4 µM"),
]

====

Target: Gardos channel of erythrocytes (Homo sapiens, UniProt O15554)
Sequence (O15554 whole entry): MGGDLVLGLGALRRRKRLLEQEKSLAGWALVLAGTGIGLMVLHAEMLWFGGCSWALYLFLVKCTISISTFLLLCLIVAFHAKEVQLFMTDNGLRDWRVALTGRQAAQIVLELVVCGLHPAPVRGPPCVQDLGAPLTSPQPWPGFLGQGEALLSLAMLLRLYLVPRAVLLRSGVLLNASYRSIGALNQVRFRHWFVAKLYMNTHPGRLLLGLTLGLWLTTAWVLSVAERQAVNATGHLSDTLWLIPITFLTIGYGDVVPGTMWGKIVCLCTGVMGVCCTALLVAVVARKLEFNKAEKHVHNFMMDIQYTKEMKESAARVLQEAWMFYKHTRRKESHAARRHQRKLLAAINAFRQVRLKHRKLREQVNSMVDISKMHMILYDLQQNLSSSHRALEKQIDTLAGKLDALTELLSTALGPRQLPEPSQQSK
Test: Gardos Channel Assay

# compound, subjectOfTest, IC50, nM
measured = [
    ("COC(=O)C1C(=O)c2ccccc2C1(c1ccccc1)c1ccccc1 (stereo not shown) [Compound 15, 3,3-Diphenylindanone-2-methyl acetate]", "Gardos channel of erythrocytes (Homo sapiens, UniProt O15554)", 2900),
]

====

System: ACHN
Assay: SRB antiproliferative assay, ACHN
Format: cell-based
Details: Homo sapiens, 120 h, Renal, 5% FCS, 5 Day Incubation
Excerpt: The cells were passaged using Trypsin (Gibco).
endpointLabel: IC50

# smilesRecord, testValue
records = [
    ("O/N=C1\\CC(c2ccc(Cl)cc2)(c2ccc(Cl)cc2)c2ccc(Cl)cc21", "> 10 µM"),
]

====

Tested on: CaSki
Experiment: SRB antiproliferative assay, CaSki
Format: cell-based
Conditions: Homo sapiens, Ca-Ski, 120 h; Cervical; 5% FCS, 5 Day Incubation
pIC50: −log10 of the molar value.
endpointLabel: pIC50

# smilesRecord, testValue
rows = [
    ("O/N=C1\\CC(c2ccc(Cl)cc2)(c2ccc(Cl)cc2)c2ccc(Cl)cc21", 5.15),
]

====

Molecular target: UniProt:O15554
Experiment: Gardos Channel Assay
Settings: read-out: Gardos Channel Assay Inhibition

# molecule, inhibition at 10 µM (%)
measured = [
    ("N#CC1OC12CC(c1ccccc1)(c1ccccc1)c1ccccc12 (stereo not shown) [Compound 5]", 67.3),
    ("Clc1ccccc1COC1CC(c2ccccc2)(c2ccccc2)c2ccccc21 (stereo not shown) [Compound 18]", 0),
    ("OC1=C(CCC2OCCO2)C(c2ccccc2)(c2ccccc2)c2ccccc21 [Compound 20]", 0),
    ("C=CCOC1=C(CC=C)C(c2ccccc2)(c2ccccc2)c2ccccc21 [Compound 6]", 35),
    ("COC(=O)C1C(=O)c2ccccc2C1(c1ccccc1)c1ccccc1 (stereo not shown) [Compound 15, 3,3-Diphenylindanone-2-methyl acetate]", 54.8),
    ("COC(=O)c1ccc(COC2CC(c3ccccc3)(c3ccccc3)c3ccccc32)cc1 (stereo not shown) [Compound 17]", 0),
    ("O/N=C1\\CC(c2ccc(Cl)cc2)(c2ccc(Cl)cc2)c2ccc(Cl)cc21 [Compound 11]", 50),
]

====

Tested on: NIH 3T3 mouse fibroblast cells
Assay: Mitogenic Assay (mitogen-induced cell proliferation)
Settings: NIH3T3, read-out: Mitogenic Assay Inhibition
// values below are reported inhibition at 10 µM
endpointLabel: inhibition at 10 µM (%)

# compound, subjectOfTest, testValue
records = [
    ("O/N=C1\\CC(c2ccc(Cl)cc2)(c2ccc(Cl)cc2)c2ccc(Cl)cc21 [Compound 11]", "NIH 3T3 mouse fibroblast cells", 99),
    ("OC1=C(CCC2OCCO2)C(c2ccccc2)(c2ccccc2)c2ccccc21 [Compound 20]", "NIH 3T3 mouse fibroblast cells", 81),
    ("C=CCOC1=C(CC=C)C(c2ccccc2)(c2ccccc2)c2ccccc21 [Compound 6]", "NIH 3T3 mouse fibroblast cells", 90),
    ("COC(=O)c1ccc(COC2CC(c3ccccc3)(c3ccccc3)c3ccccc32)cc1 (stereo not shown) [Compound 17]", "NIH 3T3 mouse fibroblast cells", 76),
    ("Clc1ccccc1COC1CC(c2ccccc2)(c2ccccc2)c2ccccc21 (stereo not shown) [Compound 18]", "NIH 3T3 mouse fibroblast cells", 73),
    ("N#CC1OC12CC(c1ccccc1)(c1ccccc1)c1ccccc12 (stereo not shown) [Compound 5]", "NIH 3T3 mouse fibroblast cells", 29),
    ("COC(=O)C1C(=O)c2ccccc2C1(c1ccccc1)c1ccccc1 (stereo not shown) [Compound 15, 3,3-Diphenylindanone-2-methyl acetate]", "NIH 3T3 mouse fibroblast cells", 80),
]
